Target: CDK7/cyclinH/MAT1 trimeric complex (Homo sapiens (Human), UniProt P50613)
Sequence (P50613 whole entry): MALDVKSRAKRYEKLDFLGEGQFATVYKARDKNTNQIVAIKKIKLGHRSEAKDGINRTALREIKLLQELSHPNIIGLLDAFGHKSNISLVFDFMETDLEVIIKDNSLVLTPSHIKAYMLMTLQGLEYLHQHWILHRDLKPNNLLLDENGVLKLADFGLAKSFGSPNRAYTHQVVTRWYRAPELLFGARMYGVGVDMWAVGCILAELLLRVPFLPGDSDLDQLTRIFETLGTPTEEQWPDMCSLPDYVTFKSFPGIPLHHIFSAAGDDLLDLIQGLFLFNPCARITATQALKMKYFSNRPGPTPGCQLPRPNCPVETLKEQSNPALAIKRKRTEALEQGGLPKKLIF
Sequence (P51946 whole entry partner): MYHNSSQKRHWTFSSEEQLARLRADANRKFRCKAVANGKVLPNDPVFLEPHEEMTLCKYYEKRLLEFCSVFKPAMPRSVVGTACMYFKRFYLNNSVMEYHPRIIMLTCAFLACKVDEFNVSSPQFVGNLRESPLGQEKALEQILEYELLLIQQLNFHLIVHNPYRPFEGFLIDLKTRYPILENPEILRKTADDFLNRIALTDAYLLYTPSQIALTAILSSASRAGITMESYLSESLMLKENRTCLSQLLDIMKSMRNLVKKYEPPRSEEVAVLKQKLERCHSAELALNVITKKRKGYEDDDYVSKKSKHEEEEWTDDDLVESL
Sequence (P51948 whole entry partner): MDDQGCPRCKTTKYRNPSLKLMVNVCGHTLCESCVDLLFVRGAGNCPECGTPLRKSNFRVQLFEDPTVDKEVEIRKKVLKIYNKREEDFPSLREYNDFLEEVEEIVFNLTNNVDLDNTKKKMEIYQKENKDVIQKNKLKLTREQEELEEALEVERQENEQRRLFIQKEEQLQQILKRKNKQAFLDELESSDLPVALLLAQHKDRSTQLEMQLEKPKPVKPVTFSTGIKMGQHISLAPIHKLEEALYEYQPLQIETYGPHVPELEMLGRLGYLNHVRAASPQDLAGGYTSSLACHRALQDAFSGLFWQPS
Test: In vitro CDK7 assay, potency of irreversible covalent inhibitors (kinact/KI)
Conditions: CDK7 (20 nM enz.) (KI, μM), 20 nM enz.
measured-metric: Ki (µM)

[[record]]
molecule = "C=CC(=O)N1CC[C@H](N2CC(c3cc(F)c4c(c3)Nc3ncnc(N5CCOCC5)c3CO4)C2)C1 (single isomer, unassigned) [compound 54]"
measured_metric = "Ki"
readout_value = 1.36

[[record]]
molecule = "C=CC(=O)N1CC(N2CCC(c3cc4c(cn3)O[C@H](C)c3c(ncnc3N3CCOCC3)N4)CC2)C1 (single isomer, unassigned) [compound 60]"
measured_metric = "Ki"
readout_value = 0.283

[[record]]
molecule = "C=CC(=O)N1CC(N2CCC(c3cc(C)c4c(c3)Nc3ncnc(N5CCS(=O)(=O)CC5)c3[C@H](C)O4)CC2)C1 [compound 32]"
measured_metric = "Ki"
readout_value = 0.0249


a. C=CC(=O)N1CC(N2CC(c3cc(C)c4c(c3)Nc3ncnc(N5CCS(=O)(=O)CC5)c3CO4)C2)C1 [compound 111]
b. C=CC(=O)N1CC(N2CCC(c3ccc4c(c3)Nc3ncnc(N5CCOCC5)c3[C@@H](C)O4)CC2)C1 (single isomer, unassigned) [compound 56]
Q: Between the entries labeled a and b , whose measured Ki is lower? Your answer should be the label of the entry you select.
Ans: a

a. C=CC(=O)N1CC(N2CCC(c3ccc4c(c3)Nc3ncnc(N5CCOCC5)c3CO4)CC2)C1 [compound 1]
b. C#Cc1cc(C2CN([C@H]3CCN(C(=O)C=C)C3)C2)cc2c1O[C@@H](C)c1c(ncnc1N1CCS(=O)(=O)CC1)N2 [compound 194]
Q: Between the entries labeled a and b , whose measured Ki is lower? Your answer should be the label of the entry you select.
Ans: b

I. C=CC(=O)N1CC(N2CCC(c3ccc4c(c3)Nc3ncnc(N5CCOCC5)c3[C@@H](CC)O4)CC2)C1 (single isomer, unassigned) [compound 76]
II. C=CC(=O)N1CC(N2CCC(c3cc(C)c4c(c3)Nc3ncnc(N5CCC(S(C)(=O)=O)C5)c3CO4)CC2)C1 (stereo not drawn) [compound 65]
III. C=CC(=O)N1CC(N2CC[C@H](c3cc4c(c(C)n3)OCc3c(ncnc3N3CCS(=O)(=O)CC3)N4)C2)C1 [compound 31]
Q: Ascending by Ki, please. Response field: labels, in requested order.
Ans: III, I, II
(III: 0.226 µM, I: 0.457 µM, II: 4.12 µM)

I. C=CC(=O)N1CC(N2CCC(c3ccc4c(c3)Nc3ncnc(N5CCOCC5)c3C(CC)O4)CC2)C1 (stereo not drawn) [compound 66]
II. C=CC(=O)N1CC(N2CC(c3cc(C)c4c(c3)Nc3ncnc(N5CCOCC5)c3C(C)O4)C2)C1 (stereo not drawn) [compound 103]
Q: Between the entries labeled I and II , whose measured Ki is lower? Your answer should be the label of the entry you select.
Ans: II

* * *

Target: CDK7/cyclinH/MAT1 trimeric complex (Homo sapiens (Human))
Experiment: In vitro CDK7 assay, potency of irreversible covalent inhibitors (kinact/KI)
Conditions: CDK7 (20 nM enz.) (KI, μM), 20 nM enz.
measured-metric: Ki (µM)

Use these answered entries as a reference point.
[[record]]
compound = "C=CC(=O)N1CC(N2CCC(c3cc(C#N)c4c(c3)Nc3ncnc(N5CCOCC5)c3CO4)CC2)C1"
target_entity = "CDK7/cyclinH/MAT1 trimeric complex (Homo sapiens (Human))"
measured_metric = "Ki"
unit_info = "µM"
readout_value = 0.0858

[[record]]
compound = "C#Cc1cc(C2CCN(C3CN(C(=O)C#CC)C3)CC2)cc2c1O[C@H](C)c1c(ncnc1N1CCS(=O)(=O)CC1)N2"
target_entity = "CDK7/cyclinH/MAT1 trimeric complex (Homo sapiens (Human))"
measured_metric = "Ki"
unit_info = "µM"
readout_value = 0.856


a. CC#CC(=O)N1CCC(N2CC=C(c3cc(C)c4c(c3)Nc3ncnc(N5CCS(=O)(=O)CC5)c3CO4)CC2)CC1
b. C=CC(=O)N1CC(N2CC[C@@H](c3cc(C)c4c(c3)Nc3ncnc(N5CCOCC5)c3CO4)C2)C1
c. C=CC(=O)N1CCC(N2CC(c3cc(Cl)c4c(c3)Nc3ncnc(C5CCOCC5)c3CO4)C2)CC1
Q: Ascending by Ki, please. Response field: labels, in requested order.
Ans: a, b, c

* * *

Tested on: RNA polymerase II Serine 5 phosphorylation in A549 cells overexpressing CDK7 mutant (C312S)
Assay: Imaging-based cellular RNA PolII Ser5 phosphorylation assay in A549 cells overexpressing CDK7-mutant (C312S)
Format: cell-based, human
Settings: Homo sapiens, A549, A549 cells overexpressing CDK7 mutant (C312S); read-out: CDK7_ A549 mutant hCDK7(pIC50) (converted)
measured-metric: IC50

Use these answered entries as a reference point.
[[record]]
molecule = "C=CC(=O)NCCN1CCC(c2ccc3c(c2)Nc2ncnc(N4CCOCC4)c2CO3)CC1"
measured_metric = "IC50"
readout_value = "> 10 µM"

[[record]]
molecule = "C=CC(=O)N1CCC(N2CC(c3cc(C)c4c(c3)Nc3ncnc(N5CCS(=O)(=O)CC5)c3CO4)C2)CC1"
measured_metric = "IC50"
readout_value = "7.76 µM"

[[record]]
molecule = "C#Cc1cc(C2CCN(C3CN(C(=O)C=C)C3)CC2)cc2c1O[C@H](C)c1c(ncnc1N1CCS(=O)(=O)CC1)N2 (single isomer, unassigned)"
measured_metric = "IC50"
readout_value = "> 10 µM"

[[record]]
molecule = "C=CC(=O)N1CCC(N2CCC(c3ccc4c(c3)Nc3ncnc(N5CCOCC5)c3CO4)CC2)C(F)C1 (stereo not drawn)"
measured_metric = "IC50"
readout_value = "> 10 µM"

[[record]]
molecule = "Cc1cc(C2CCN(C3(C)CN(C(=O)C#CCCN4CCOCC4)C3)CC2)cc2c1O[C@H](C)c1c(ncnc1N1CCS(=O)(=O)CC1)N2"
measured_metric = "IC50"
readout_value = "> 10 µM"


Q: Look up IC50 for this molecule: Cc1cc(C2CN([C@@H]3CCN(C(=O)C#CCCN(C)C)C3)C2)cc2c1O[C@H](C)c1c(ncnc1N1CCS(=O)(=O)CC1)N2 (single isomer, unassigned)
Ans: 7.24 µM

* * *

IC50 tested on RNA polymerase II Serine 5 phosphorylation (CDK7) in A549 cells: recorded values

Q: Look up IC50 for this compound: Cc1cc(C2CCN(C3CN(C(=O)C#CCCN(C)C)C3)CC2)cc2c1O[C@H](C)c1c(ncnc1N1CCS(=O)(=O)CC1)N2 [compound 178]
Ans: < 9.77 nM

Q: Look up IC50 for this compound: CC#CC(=O)N1CC(N2C3CCC2CC(c2cc(C)c4c(c2)Nc2ncnc(N5CCS(=O)(=O)CC5)c2[C@@H](C)O4)C3)C1 (mixture of isomers) [compound 182]
Ans: ~72.4 nM

Q: Look up IC50 for this compound: C=CC(=O)N1CC[C@H](N2CC(c3cc4c(c(C5CC5)c3)O[C@@H](C)c3c(ncnc3N3CCS(=O)(=O)CC3)N4)C2)C1 (single isomer, unassigned) [compound 99]
Ans: ~794 nM

* * *

Target: CDK7/cyclinH/MAT1 trimeric complex (Homo sapiens (Human))
Assay: In vitro CDK7 assay, potency of irreversible covalent inhibitors (kinact/KI)
Conditions: read-out: CDK7 (20 nM enz.) (kinact, s^−1), 20 nM enz.
measured-metric: kinact (s⁻¹)

[[record]]
compound = "C=CC(=O)N1CCC(N2CCC(c3ccc4c(c3)Nc3ncnc(N5CCOCC5)c3CO4)CC2)C(F)C1 (stereo not drawn)"
unit_info = "s⁻¹"
readout_value = "5.72e-05"

[[record]]
compound = "CC#CC(=O)N1CCC(N2CC=C(c3cc(C)c4c(c3)Nc3ncnc(N5CCS(=O)(=O)CC5)c3CO4)CC2)CC1"
unit_info = "s⁻¹"
readout_value = "7.15e-05"


1. C=CC(=O)N1CC(N2CCC(c3ccc4c(c3)Nc3ncnc(N5CCOCC5)c3C(CC)O4)CC2)C1 (stereo not drawn)
2. C=CC(=O)N1CC[C@H](N2CC(c3cc(F)c4c(c3)Nc3ncnc(N5CCOCC5)c3CO4)C2)C1 (single isomer, unassigned)
Q: Which of the two gives a bigger number for kinact: 1 or 2 ? Your answer should be the label of the entry you select.
Ans: 2
(2: 7.77e-05 s⁻¹, 1: 4.52e-05 s⁻¹)

* * *

Target: CDK7/cyclinH/MAT1 trimeric complex (Homo sapiens (Human), UniProt P50613)
Test: In vitro CDK7 assay, potency of irreversible covalent inhibitors (kinact/KI)
Conditions: read-out: CDK7 (20 nM enz.) (kinact, s^−1), 20 nM enz.
measured-metric: kinact (s⁻¹)

[[record]]
compound = "C=CC(=O)N1CC[C@@H](N2CC(c3cc(C)c4c(c3)Nc3ncnc(N5CCS(=O)(=O)CC5)c3[C@@H](C)O4)C2)C1 (single isomer, unassigned)"
target_entity = "CDK7/cyclinH/MAT1 trimeric complex (Homo sapiens (Human), UniProt P50613)"
readout_value = "4.79e-05"

[[record]]
compound = "C=CC(=O)N1CCC(N2CC(c3cc(C#N)c4c(c3)Nc3ncnc(-c5cnn(C)c5)c3CO4)C2)CC1"
target_entity = "CDK7/cyclinH/MAT1 trimeric complex (Homo sapiens (Human), UniProt P50613)"
readout_value = "3.75e-05"

[[record]]
compound = "C=CC(=O)N1CC(N2CCC(c3cc4c(cn3)O[C@@H](C)c3c(ncnc3N3CCOCC3)N4)CC2)C1 (single isomer, unassigned)"
target_entity = "CDK7/cyclinH/MAT1 trimeric complex (Homo sapiens (Human), UniProt P50613)"
readout_value = "5.74e-05"

[[record]]
compound = "C=CC(=O)N1CC[C@@H](N2CC(c3cc4c(c(C)n3)OCc3c(ncnc3N3CCS(=O)(=O)CC3)N4)C2)C1 (single isomer, unassigned)"
target_entity = "CDK7/cyclinH/MAT1 trimeric complex (Homo sapiens (Human), UniProt P50613)"
readout_value = "3.93e-05"

[[record]]
compound = "C=CC(=O)N1CC(N2CCC(c3cc(F)c4c(c3)Nc3ncnc(-c5cnn(C)c5)c3[C@@H](C)O4)CC2)C1 (single isomer, unassigned)"
target_entity = "CDK7/cyclinH/MAT1 trimeric complex (Homo sapiens (Human), UniProt P50613)"
readout_value = "5.9e-05"

[[record]]
compound = "C=CC(=O)N1CCC(N2CC(c3cc4c(c(C)n3)OCc3c(ncnc3N3CCS(=O)(=O)CC3)N4)C2)C1 (stereo not drawn)"
target_entity = "CDK7/cyclinH/MAT1 trimeric complex (Homo sapiens (Human), UniProt P50613)"
readout_value = "3.83e-05"

[[record]]
compound = "CC#CC(=O)N1CC(N2CCC(c3cc4c(c(C)n3)O[C@H](C)c3c(ncnc3N3CCS(=O)(=O)CC3)N4)CC2)C1 (single isomer, unassigned)"
target_entity = "CDK7/cyclinH/MAT1 trimeric complex (Homo sapiens (Human), UniProt P50613)"
readout_value = "5.63e-05"

[[record]]
compound = "C=CC(=O)N1CC(N2CCC(c3cc(F)c4c(c3)Nc3ncnc(N5CCOCC5)c3[C@H](C)O4)CC2)C1 (single isomer, unassigned)"
target_entity = "CDK7/cyclinH/MAT1 trimeric complex (Homo sapiens (Human), UniProt P50613)"
readout_value = "5.65e-05"

[[record]]
compound = "C=CC(=O)N1CC(N2CCC(c3cc4c(c(C)n3)O[C@@H](C)c3c(ncnc3N3CCS(=O)(=O)CC3)N4)CC2)C1 (single isomer, unassigned)"
target_entity = "CDK7/cyclinH/MAT1 trimeric complex (Homo sapiens (Human), UniProt P50613)"
readout_value = "6.46e-05"

[[record]]
compound = "C=CC(=O)N1CCC(N2CCC(c3cc(C)c4c(c3)Nc3ncnc(N5CCS(=O)(=O)CC5)c3CO4)CC2)CC1"
target_entity = "CDK7/cyclinH/MAT1 trimeric complex (Homo sapiens (Human), UniProt P50613)"
readout_value = "4.48e-05"

[[record]]
compound = "C=CC(=O)N1CC(N2CC[C@@H](c3cc(C)c4c(c3)Nc3ncnc(N5CCOCC5)c3CO4)C2)C1"
target_entity = "CDK7/cyclinH/MAT1 trimeric complex (Homo sapiens (Human), UniProt P50613)"
readout_value = "6.38e-05"

[[record]]
compound = "C=CC(=O)N1CC(N2CCC(c3cc(C)c4c(c3)Nc3ncnc(-c5cn(C)nc5C)c3CO4)CC2)C1"
target_entity = "CDK7/cyclinH/MAT1 trimeric complex (Homo sapiens (Human), UniProt P50613)"
readout_value = "4.82e-05"

